Tested on: biotinyl-Trp-oxazolone
experiment: self-aminoacylation, catalytic enhancement (BWO) (fold over background); higher = more active; k-Seq, kA / k0A0; sequences stand for … in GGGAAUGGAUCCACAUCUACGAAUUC…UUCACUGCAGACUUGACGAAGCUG
This sample holds only a part of the variants without activity.
reported-endpoint: self-aminoacylation
Give bare numbers.

* AAAUUUGCUAAUAGUAGCAAG [Fam3.1 aminoacylation ribozyme variant] | 1.96

For each of the sequences below, note its self-aminoacylation.
1. AAGUUUGCUAAUAGUCGAUAG [Fam3.1 aminoacylation ribozyme variant]
2. CCACACUUGAAGCAACCGGUC [Fam1B.1 aminoacylation ribozyme variant]
3. AUUCACCGAGAUCAUCGGGUG [Fam2.2 aminoacylation ribozyme variant]
4. AAGUUUACUAAGAGUCGCAAG [Fam3.1 aminoacylation ribozyme variant]
5. AUUCACCAAGGGCAUCGGGUG [Fam2.2 aminoacylation ribozyme variant]
6. AUUAACCUGGUCAUCGAGGGA [Fam2.1 aminoacylation ribozyme variant]
7. AUUCACCUAGGGCAUCUGGUG [Fam2.2 aminoacylation ribozyme variant]

Marked response:
1. 0.829
2. 0.938
3. 7.09
4. 1.69
5. 4.74
6. 1.99
7. 2.64

Hey, can you go through the list below and give me self-aminoacylation for every item?
1. CUGCUUCAAACCAUCGGUCUG [Fam1A.1 aminoacylation ribozyme variant]
2. CUACUUCAAACAAUAGGACUG [Fam1A.1 aminoacylation ribozyme variant]
3. AUUCACCUGGGUCAUCGGGUU [Fam2.2 aminoacylation ribozyme variant]
4. AAGUUUACUAAUAGUCGCGAG [Fam3.1 aminoacylation ribozyme variant]
5. CUACUUCAAAUAAUCGGCCUG [Fam1A.1 aminoacylation ribozyme variant]

Marked response:
[0.706, 0.515, 7.09, 1.54, 12]

----------
Provide the recorded self-aminoacylation for the entries that follow.
System: biotinyl-Phe-oxazolone
experiment: self-aminoacylation, catalytic enhancement (BFO) (fold over background); higher = more active; k-Seq, kA / k0A0; sequences stand for … in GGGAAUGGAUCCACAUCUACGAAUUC…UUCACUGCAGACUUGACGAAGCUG
This sample holds only a part of the variants without activity.

• AUUCACCUAGGUCAGCGGGUG [Fam2.2 aminoacylation ribozyme variant] = 29.1
• AUUAACCUACGUCAUCGGGUG [Fam2.2 aminoacylation ribozyme variant] = 47.5
• AUUACCGUGGUCAUCGGGUGA [Fam2.1 aminoacylation ribozyme variant] = 105

Give self-aminoacylation for each of the items listed below.
1. AGUACCUUGGUCAUCGAGUGA [Fam2.1 aminoacylation ribozyme variant]
2. CUACUCCAAACAAUCGAUCUG [Fam1A.1 aminoacylation ribozyme variant]
3. CUACUUCAAACAAUCGCUAUG [Fam1A.1 aminoacylation ribozyme variant]
4. GAGUUUGCUAAUAGUCGCAGG [Fam3.1 aminoacylation ribozyme variant]
5. AUUACCGUUGUCAUCGAGUGA [Fam2.1 aminoacylation ribozyme variant]
6. AUUACCCUGGACUUCGAGUGA [Fam2.1 aminoacylation ribozyme variant]
7. AUUUACCUGGUCAUCGAGUGA [Fam2.1 aminoacylation ribozyme variant]

Marked response:
19
0.831
1.32
6.69
40.2
11.4
8.89

Give measured self-aminoacylation for every item shown.
1. AUUAUCCUGGUCAUUGAGUGA [Fam2.1 aminoacylation ribozyme variant]
2. CUUACCCUGGUCAUCGAUUGA [Fam2.1 aminoacylation ribozyme variant]
3. AAGUUUGCUAAUAGUAGCAAA [Fam3.1 aminoacylation ribozyme variant]
4. AUUACCCUGGUGAUCGAGUGG [Fam2.1 aminoacylation ribozyme variant]
5. AAGUCUGUUAAUAGUCGCAAG [Fam3.1 aminoacylation ribozyme variant]

Marked response:
67.5
0.863
2.93
3.23
1.04

Would you mind listing self-aminoacylation for each of the following sequences?
1. CCACACUUCAAGCAGUCUGUC [Fam1B.1 aminoacylation ribozyme variant]
2. ACACACUUCAAGCAAUCGGCC [Fam1B.1 aminoacylation ribozyme variant]
3. AUGACCCUGGUCCUCGAGUGA [Fam2.1 aminoacylation ribozyme variant]
4. CCACUUCAAACAACCGGUCUG [Fam1A.1 aminoacylation ribozyme variant]
5. AAGUUUGCUACUAGUCGUAAG [Fam3.1 aminoacylation ribozyme variant]
6. AUCCACCUAGGUCUUCGGGUG [Fam2.2 aminoacylation ribozyme variant]

Marked response:
[0.562, 4, 22.1, 2.13, 0.833, 37.1]

Need self-aminoacylation for each of these sequences.
1. UCACACUUCAAGCAAUCCGUC [Fam1B.1 aminoacylation ribozyme variant]
2. UCACACUUCAAGCACUCGGUC [Fam1B.1 aminoacylation ribozyme variant]
3. AGGUUUGCUAAUAGUCGCGAG [Fam3.1 aminoacylation ribozyme variant]
4. AAGUUUGAUAAUCGUCGCAAG [Fam3.1 aminoacylation ribozyme variant]
5. CCACUCUUCAAGAAAUCGGUC [Fam1B.1 aminoacylation ribozyme variant]
6. AUUACCCAGGUUAUCGAGUGA [Fam2.1 aminoacylation ribozyme variant]
7. AGUAACCUGGUCAUCGAGUGA [Fam2.1 aminoacylation ribozyme variant]
8. CAACUGCAAACAAUCGGUCUG [Fam1A.1 aminoacylation ribozyme variant]

Marked response:
1.15
0.873
2.48
1.99
5.4
50.4
16.8
4.06

For each of the sequences below, note its self-aminoacylation.
1. AAGUUUGCUAAAGGUCGCAAG [Fam3.1 aminoacylation ribozyme variant]
2. CCGCUCUUCAAGCAAUCGGUC [Fam1B.1 aminoacylation ribozyme variant]
3. CUACUUCAAACAAACGGUUUG [Fam1A.1 aminoacylation ribozyme variant]
4. AAGUUUGCUAAUAGACGCAUG [Fam3.1 aminoacylation ribozyme variant]
5. CCUCACUUCAAGCAAUCGGUG [Fam1B.1 aminoacylation ribozyme variant]
6. CAACUUCAAACAAUCGGCCUG [Fam1A.1 aminoacylation ribozyme variant]

Marked response:
1. 1.14
2. 35.5
3. 0.656
4. 0.785
5. 25.3
6. 283

----------
Test system: biotinyl-Val-oxazolone
experiment: self-aminoacylation, catalytic enhancement (BVO) (fold over background); higher = more active; k-Seq, kA / k0A0; sequences stand for … in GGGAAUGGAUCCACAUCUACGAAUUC…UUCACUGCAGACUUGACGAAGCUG
Variants at the floor of the assay were thinned out.
Values of self-aminoacylation greater than or equal to 2 map to Met; values below map to Not met.

Recorded results for 10 sequences are shown here.
- AAGUUUGCUUAAAGUCGCAAG [Fam3.1 aminoacylation ribozyme variant]: Not met
- AUUAACCUGGUCAUCGAGGGA [Fam2.1 aminoacylation ribozyme variant]: Not met
- AUUCACCUAGGUAAUCCGGUG [Fam2.2 aminoacylation ribozyme variant]: Met
- AAGAUUGCUAAAAGUCGCAAG [Fam3.1 aminoacylation ribozyme variant]: Not met
- AUUCACCUAGGACAUCGGGAG [Fam2.2 aminoacylation ribozyme variant]: Not met
- AUUCAGCUAGGUCAACGGGUG [Fam2.2 aminoacylation ribozyme variant]: Not met
- CUACCUCAACCAAUCGGUCUG [Fam1A.1 aminoacylation ribozyme variant]: Not met
- UUUACCCUGGUCAUUGAGUGA [Fam2.1 aminoacylation ribozyme variant]: Met
- ACUCCCCUAGGUCAUCGGGUG [Fam2.2 aminoacylation ribozyme variant]: Met
- AGGUUUGCUGAUAGUCGCAAG [Fam3.1 aminoacylation ribozyme variant]: Not met

Exam item: Item AUUCAGCUAGGUCACCGGGUG [Fam2.2 aminoacylation ribozyme variant] with self-aminoacylation of 2 or above?
Marked response: Met

Exam item: Is reported self-aminoacylation greater than or equal to 2 here: AUUCGCCUAGGUCAUCGGGUU [Fam2.2 aminoacylation ribozyme variant]
Marked response: Met

Exam item: Decide: self-aminoacylation of AUUGACCUAGGUCAUCGUGUG [Fam2.2 aminoacylation ribozyme variant] >= 2?
Marked response: Not met

Exam item: Check the entry AUAACCCUGGUCAGCGAGUGA [Fam2.1 aminoacylation ribozyme variant] : does self-aminoacylation equal or exceed 2?
Marked response: Met

Exam item: Quick check, self-aminoacylation >= 2? AUUAACCUAGGUCCUCGGGUG [Fam2.2 aminoacylation ribozyme variant]
Marked response: Met

Exam item: Say whether AUUCACCUAGGUCAUAAGGUG [Fam2.2 aminoacylation ribozyme variant] shows self-aminoacylation of 2 or more.
Marked response: Not met

----------
For each record, write down the corresponding self-aminoacylation.
Tested on: biotinyl-Val-oxazolone
experiment: self-aminoacylation, catalytic enhancement (BVO) (fold over background); higher = more active; k-Seq, kA / k0A0; sequences stand for … in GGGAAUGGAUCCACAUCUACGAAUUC…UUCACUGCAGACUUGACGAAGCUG
Variants at the floor of the assay were thinned out.
Give bare numbers.

Provide self-aminoacylation for all items below, preserving their order.
1. AUUACCCUGGUCAUCGAGGAA [Fam2.1 aminoacylation ribozyme variant]
2. AUUCACCUAAGUCAUCGGUUG [Fam2.2 aminoacylation ribozyme variant]
3. AUUCACCUAGGUCAUGGAGUG [Fam2.2 aminoacylation ribozyme variant]
4. AAGUUUGCUGAUAGCCGCAAG [Fam3.1 aminoacylation ribozyme variant]
5. CCACACUUCCAGUAAUCGGUC [Fam1B.1 aminoacylation ribozyme variant]

Marked response:
1: 2.44; 2: 1.24; 3: 2.49; 4: 0.968; 5: 1.1
